Tested on: HEK-293T
Assay: Multiplex assay against HEK293T
Type: toxicity, cell-based
Details: human, 48 h, 1 µM, compound concentration 1 uM
assay readout: Population Tubulin-Different-Phenotype (%)

C[C@@H]1CC(=O)Nc2cccc(-c3ccc4c(c3)c(-c3cnn(C)c3)nn4C)c2N1: 13
CC(F)(F)CN1CCOc2c(nn(-c3ccccc3Cl)c2-c2ccc(Cl)cc2)C1=O: 8
CSCC[C@H](NC=O)C(=O)N[C@@H](CC(C)C)C(=O)N[C@@H](Cc1ccccc1)C(=O)O: 12
CN[C@@H](C)C(=O)N[C@H](C(=O)N1CCC[C@H]1C(=O)Nc1snnc1-c1ccccc1)C1CCCCC1: 16

The measured values listed here are drawn from ChEMBL document CHEMBL5724801.
